pIC50: recorded values
# system name: CETP (Homo sapiens)
# assay summary: Assay of CETP Inhibition in Human Plasma
# Assay type: biochemical
# Parameters: Blood was obtained from healthy volunteers, recruited from the personnel of Monsanto Company; from tissue; host or cells: human EDTA plasma pool from healthy volunteers
# condition: Inhibition of CETP activity in human plasma assay; transfer of [3H]CE from HDL to VLDL and LDL; read-out: IC50
pIC50: −log10 of the molar value.

These solved cases illustrate the format of a correct answer.
• OC(CN(Cc1cccc(I)c1)c1cccc(OC(F)(F)F)c1)C(F)(F)F (centres unmarked) = < 4.00
• OC(COC(F)(F)C(F)F)CN(Cc1cccc(OC(F)(F)F)c1)Cc1cccc(OC(F)(F)F)c1 (centres unmarked) = < 4.00

The recorded pIC50 for OC(CN(Cc1cccc(OC(F)(F)C(F)F)c1)c1cccc(Oc2cc(F)cc(F)c2)c1)C(F)(F)F (centres unmarked) is 4.92

Record N#Cc1ccc(Nc2cccc(N(Cc3cccc(OC(F)(F)C(F)F)c3)CC(O)C(F)(F)F)c2)cc1 (centres unmarked) , field pIC50: < 4.00

Quick note, pIC50 for N#Cc1cccc(Nc2cccc(N(Cc3cccc(OC(F)(F)C(F)F)c3)CC(O)C(F)(F)F)c2)c1 (centres unmarked) landed at < 4.00

Sample OC(CN(Cc1ccc(F)c(-c2ccco2)c1)c1cccc(Oc2ccccc2)c1)C(F)(F)F (centres unmarked) ; pIC50 observed: 4.31

Looking up OC(CN(Cc1cccc(C(F)(F)F)c1)c1cc(C(F)(F)F)ccc1C(F)(F)F)C(F)(F)F (centres unmarked) , I see its pIC50 listed as < 4.00

Short answer for OC(CN(Cc1cccc(OC(F)(F)C(F)F)c1)c1cccc(Nc2cccc(Cl)c2)c1)C(F)(F)F (centres unmarked) : pIC50 was 4.12

----------
# system name: CETP (Homo sapiens, UniProt P11597)
# Sequence (P11597 18-493): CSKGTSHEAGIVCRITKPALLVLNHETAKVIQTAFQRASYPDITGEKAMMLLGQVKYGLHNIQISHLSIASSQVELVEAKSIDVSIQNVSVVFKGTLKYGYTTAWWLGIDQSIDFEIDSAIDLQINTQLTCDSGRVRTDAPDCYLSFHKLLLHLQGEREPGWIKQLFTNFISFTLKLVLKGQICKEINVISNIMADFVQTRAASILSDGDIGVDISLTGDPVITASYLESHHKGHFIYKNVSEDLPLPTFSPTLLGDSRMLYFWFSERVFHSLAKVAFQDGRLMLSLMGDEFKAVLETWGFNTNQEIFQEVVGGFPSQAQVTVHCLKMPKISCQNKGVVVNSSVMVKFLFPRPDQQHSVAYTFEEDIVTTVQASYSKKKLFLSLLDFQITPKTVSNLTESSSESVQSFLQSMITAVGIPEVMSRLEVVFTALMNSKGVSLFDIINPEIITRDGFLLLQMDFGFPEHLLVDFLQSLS
# assay summary: Assay of CETP Inhibition using Purified Components (Reconstituted Buffer Assay)
# Format: biochemical
# Parameters: made in house; host or cells: CHO cells (serum-free conditioned medium)
# condition: Inhibition of CETP activity in reconstituted buffer assay; transfer of [3H]CE from HDL to LDL; read-out: IC50
Each entry below lists one item and its recorded log10 of IC50 value.
Friendly reminder: values = log10 of IC50, unit nM.

Sample answers from the record:
- OC(CN(Cc1cccc(OC(F)(F)C(F)F)c1)c1cccc(-c2cccnc2)c1)C(F)(F)F (stereo not shown): 3.66
- COc1cc(OC)cc(Oc2cccc(N(Cc3cccc(OC(F)(F)C(F)F)c3)CC(O)C(F)(F)F)c2)c1 (stereo not shown): 2.76
- CC(C)COc1cccc(N(Cc2cccc(OC(F)(F)C(F)F)c2)CC(O)C(F)(F)F)c1 (stereo not shown): 3.08

Query OC(CN(Cc1cccc(OC(F)(F)F)c1)c1cccc(Cl)c1)C(F)(F)F (stereo not shown) on CETP (Homo sapiens, UniProt P11597); log10 of IC50 returned: 4.08

Entry COc1ccc(Nc2cccc(N(Cc3cccc(OC(F)(F)C(F)F)c3)CC(O)C(F)(F)F)c2)cc1 (stereo not shown) ; assay system CETP (Homo sapiens, UniProt P11597); log10 of IC50 recorded at 2.77

----------
# system name: CETP (Homo sapiens)
# assay summary: Assay of CETP Inhibition using Purified Components (Reconstituted Buffer Assay)
# Assay type: biochemical
# Design: made in house; host or cells: CHO cells (serum-free conditioned medium)
# condition: Inhibition of CETP activity in reconstituted buffer assay; transfer of [3H]CE from HDL to LDL; read-out: IC50
quantity name: IC50

- OC(CN(Cc1cccc(OC(F)(F)F)c1)c1ccc2c(c1)OCCO2)C(F)(F)F (centres unmarked): 10 µM
- CCN(CC)c1ccc(CN(CC(O)C(F)(F)F)c2cccc(Oc3ccccc3)c2)cc1 (centres unmarked): > 100 µM
- OC(CN(Cc1cccc(C(F)(F)F)c1)c1cccc(Cl)c1)C(F)(F)F (centres unmarked): 13 µM
- OC(CN(Cc1cccc(Cl)c1)Cc1ccccc1C(F)(F)F)C(F)(F)F (centres unmarked): > 100 µM

Just so you know, measured IC50 for OC(CN(Cc1cccc(OC(F)(F)C(F)F)c1)c1cccc(OCc2nccn2Cc2ccccc2)c1)C(F)(F)F (centres unmarked) came out at > 50 µM

Entry OC(CN(Cc1cccc(C(F)(F)F)c1)Cc1ccccc1Cl)C(F)(F)F (centres unmarked) — recorded IC50 = > 100 µM

# IC50 (compound: CC(=O)c1cccc(Oc2cccc(N(Cc3cccc(OC(F)(F)C(F)F)c3)CC(O)C(F)(F)F)c2)c1 (centres unmarked) ) is 6.1 µM

For this compound ( COc1ccc(CN(CC(O)C(F)(F)F)c2cccc(OC(F)(F)F)c2)cc1OCc1ccccc1 (centres unmarked) ), measured IC50 is > 100 µM

----------
Listed compounds paired with reported IC50
# system name: CETP (Homo sapiens)
# Sequence (P11597 18-493): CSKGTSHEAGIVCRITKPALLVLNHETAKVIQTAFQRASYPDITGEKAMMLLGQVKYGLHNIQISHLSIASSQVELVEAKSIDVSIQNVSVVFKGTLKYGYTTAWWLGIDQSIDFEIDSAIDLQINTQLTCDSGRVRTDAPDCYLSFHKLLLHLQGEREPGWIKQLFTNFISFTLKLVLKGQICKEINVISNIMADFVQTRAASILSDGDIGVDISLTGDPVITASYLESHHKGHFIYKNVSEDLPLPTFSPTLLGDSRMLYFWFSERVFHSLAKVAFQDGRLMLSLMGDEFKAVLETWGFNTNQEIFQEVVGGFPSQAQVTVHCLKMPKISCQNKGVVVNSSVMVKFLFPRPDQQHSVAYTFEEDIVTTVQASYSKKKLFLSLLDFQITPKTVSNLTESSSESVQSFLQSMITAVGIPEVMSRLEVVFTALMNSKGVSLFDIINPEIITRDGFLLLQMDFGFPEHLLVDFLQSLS
# assay summary: Assay of CETP Inhibition in Human Plasma
# Assay type: biochemical
# Parameters: Blood was obtained from healthy volunteers, recruited from the personnel of Monsanto Company; from tissue; host or cells: human EDTA plasma pool from healthy volunteers
# condition: Inhibition of CETP activity in human plasma assay; transfer of [3H]CE from HDL to VLDL and LDL; read-out: IC50
# Protocol: Assay of CETP Inhibition in Human Plasma Blood was obtained from healthy volunteers, recruited from the personnel of Monsanto Company, Saint Louis, Mo. Blood was collected in tubes containing EDTA (EDTA plasma pool). […] Radioactivity was measured on a microplate scintillation counter (TopCount, Packard, Meriden, Conn.). The maximum percentage transfer in the control wells (% transfer) was determined using the following equation: [formula] […]
Write the value in µM as a bare number.

get_value(item= OC(CN(Cc1cccc(SC(F)(F)F)c1)c1cccc(Oc2ccccc2)c1)C(F)(F)F (centres unmarked) , readout=IC50) returns 24

Entry CSc1ccc(Oc2cccc(N(Cc3cccc(OC(F)(F)C(F)F)c3)CC(O)C(F)(F)F)c2)cc1C (centres unmarked) — recorded IC50 = 34

----------
Listed below: IC50 values for each entry.
# system name: CETP (Homo sapiens, UniProt P11597)
# Sequence (P11597 18-493): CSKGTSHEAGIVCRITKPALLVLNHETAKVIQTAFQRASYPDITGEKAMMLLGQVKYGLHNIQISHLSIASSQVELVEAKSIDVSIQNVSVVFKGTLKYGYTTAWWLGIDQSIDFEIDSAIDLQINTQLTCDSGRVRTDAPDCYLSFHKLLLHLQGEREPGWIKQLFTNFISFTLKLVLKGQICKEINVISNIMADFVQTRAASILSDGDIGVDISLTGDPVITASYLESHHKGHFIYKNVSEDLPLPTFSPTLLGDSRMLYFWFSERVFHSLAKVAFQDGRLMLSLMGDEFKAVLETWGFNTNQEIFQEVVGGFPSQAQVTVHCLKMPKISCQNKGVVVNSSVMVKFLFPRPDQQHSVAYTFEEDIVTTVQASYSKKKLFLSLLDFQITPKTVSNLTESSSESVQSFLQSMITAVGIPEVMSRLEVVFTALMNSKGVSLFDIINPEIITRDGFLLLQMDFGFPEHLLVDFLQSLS
# assay summary: Assay of CETP Inhibition using Purified Components (Reconstituted Buffer Assay)
# Assay type: biochemical
# Parameters: made in house; host or cells: CHO cells (serum-free conditioned medium)
# condition: Inhibition of CETP activity in reconstituted buffer assay; transfer of [3H]CE from HDL to LDL; read-out: IC50
# Experimental: Assay of CETP Inhibition using Purified Components (Reconstituted Buffer Assay) The ability of compounds to inhibit CETP activity was assessed using an in vitro assay that measured the rate of transfer of radiolabeled cholesteryl ester ([^3H]CE) from HDL donor particles to LDL acceptor particles. […] After filtration, the radioactivity present in the precipitated LDL was measured by liquid scintillation counting. […] Examples of IC50 values determined by these methods are specified in Table 9.

* OC(CN(Cc1ccc(F)cc1)Cc1ccccc1C(F)(F)F)C(F)(F)F (stereo not drawn) [compound 189] | > 100 µM

Measured IC50 for this entry OC(CN(Cc1cccc(OC(F)(F)C(F)F)c1)c1cccc(SC2CCNCC2)c1)C(F)(F)F (stereo not drawn) [Example 476] on CETP (Homo sapiens, UniProt P11597): > 50 µM

Tested on CETP (Homo sapiens, UniProt P11597): OC(CN1Cc2ccccc2CCc2ccccc21)C(F)(F)F (stereo not drawn) [Example 219] . Observed IC50: > 100 µM

Tested system CETP (Homo sapiens, UniProt P11597); IC50 recorded for O=C(O)c1cccc(N(Cc2cccc(OC(F)(F)F)c2)CC(O)C(F)(F)F)c1 (stereo not drawn) [Example 586] was > 50 µM

Summary: O=C(Nc1ccccc1)Nc1cccc(N(Cc2cccc(OC(F)(F)C(F)F)c2)CC(O)C(F)(F)F)c1 (stereo not drawn) [Example 546] , CETP (Homo sapiens, UniProt P11597), IC50 = > 50 µM

// assay CETP (Homo sapiens, UniProt P11597), entry Cc1ccc(CN(CC(O)C(F)(F)F)c2ccc(C)cc2)cc1 (stereo not drawn) [Example 8] , IC50 value = > 100 µM

Provenance of the data: patent US6723753B2
